system: HeLa cancer cells; assay: Quantification of autophagy GFP-LC3 puncta in HeLa cells; type: cell-based, human; settings: 20 μM liensinine or 10 μM others, 4 hours, compared to DMSO control (FIG. 2a)
experimental.readout: GFP-LC3 puncta formation

                                   compound      target_entity      experimental_readout               measured
0  COc1ccc2cc1Oc1ccc(cc1)C[C@H]1c3cc(c(OC)cc3CCN1C)Oc1c(OC)c(OC)c(OC)c3c1[C@H](C2)N(C)CC3 [hernandezine]  HeLa cancer cells  GFP-LC3 puncta formation  significantly induced
1  COc1cc2c(cc1OC)[C@@H](Cc1ccc(O)c(Oc3cc4c(cc3OC)CCN(C)[C@@H]4Cc3ccc(O)cc3)c1)N(C)CC2 [liensinine]  HeLa cancer cells  GFP-LC3 puncta formation  significantly induced
2  COc1cc2c(cc1OC)[C@@H](Cc1ccc(Oc3cc(C[C@@H]4c5cc(OC)c(OC)cc5CCN4C)ccc3O)cc1)N(C)CC2 [dauricine]  HeLa cancer cells  GFP-LC3 puncta formation  significantly induced
3  COc1ccc(C[C@@H]2c3cc(Oc4cc(C[C@@H]5c6cc(O)c(OC)cc6CCN5C)ccc4O)c(OC)cc3CCN2C)cc1 [isoliensinine]  HeLa cancer cells  GFP-LC3 puncta formation  significantly induced
